- System Under Test: Endoribonuclease toxin MazF (Escherichia coli K-12, UniProt P0AE70)
- Sequence (P0AE70 whole entry): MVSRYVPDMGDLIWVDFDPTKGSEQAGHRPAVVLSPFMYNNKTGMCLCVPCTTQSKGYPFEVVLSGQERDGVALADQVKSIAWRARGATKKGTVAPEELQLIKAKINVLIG
- Test Protocol: fluorescent RNA oligo signal without MazF, dose response, counter-screen for MazEF activator project, biochemical, fluorescence, single-stranded RNase substrate (AID 588502)
- Type: functional
Calls of active or inactive are those of the source.
Metric Name: EC50

The reported value for O=C1Nc2ccc(Br)cc2C12NNc1ccccc1O2 (centres undefined) in terms of EC50 is 73.1 µM (inactive)

The reported value for "O=C(Oc1ccc2c(c1)O/C(=C\c1ccncc1)C2=O)c1ccccc1" in terms of EC50 is 48 µM (inactive)

EC50 for "COc1ccc2nc(N3CCCC3)c(C#N)cc2c1" is > 99 µM (inactive)

The recorded EC50 for entry "CCOC(=O)CSc1nc2cc(OC)ccc2cc1C#N" equals > 99 µM (inactive)

----------
Activity calls are given as the source filed them.
Metric Name: IC50

Fill in: Glyceraldehyde-3-phosphate dehydrogenase (Homo sapiens, UniProt P04406) IC50 for "CSc1nnc(NC(=O)c2cc(F)c(F)c(F)c2F)[nH]1" = > 100 µM (not active)

Record "Cc1cc(C(F)(F)F)nc(S(C)(=O)=O)n1" ; system Glyceraldehyde-3-phosphate dehydrogenase (Homo sapiens, UniProt P04406); IC50 = > 100 µM (not active)

Form field, IC50 with Glyceraldehyde-3-phosphate dehydrogenase (Homo sapiens, UniProt P04406), item "COc1cc([N+](=O)[O-])ccc1S(=O)(=O)Nc1cccnc1" : > 100 µM (not active)

Per the reported Glyceraldehyde-3-phosphate dehydrogenase (Homo sapiens, UniProt P04406) data, O=C(Oc1ccc2ccccc2c1)c1ccc2c(c1)C1C=CCC1C(C(=O)O)N2 (stereo unspecified) has IC50 of 76.8 µM (active)

Sample "O=C1C(Cl)=C(N2CCN(Cc3ccc4c(c3)OCO4)CC2)C(=O)N1c1ccc(Cl)c(Cl)c1" , system: Glyceraldehyde-3-phosphate dehydrogenase (Homo sapiens, UniProt P04406). Its IC50 is > 100 µM (not active)

Form: item "O=C(O)c1cc(NS(=O)(=O)c2cc([N+](=O)[O-])ccc2Cl)ccc1O" ; test system Glyceraldehyde-3-phosphate dehydrogenase (Homo sapiens, UniProt P04406); IC50: > 100 µM (not active)

----------
- Test Protocol: inhibitors of clade B AD8 Env fusion, dose response, cell-based, cherry-pick (AID 652062);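 further: luciferase signal from cell-cell fusion driven by HIV-1 clade B AD8 Env; potency is for inhibitors of fusion seen as a drop in luminescence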
- Assay type: functional
The source made the active and inactive calls.
Could you please report measured AC50 for the items listed next?

Looking up "Cc1cccc(N2C(=O)N3[C@H](c4ccc(Br)cc4)[C@@H]4C(=O)N(C(C)(C)C)C(=O)[C@@H]4[C@]3(C)C2=O)c1" , I see its AC50 listed as 1.69 µM (active)

Notebook: "COc1ccccc1[C@@H]1C(c2ccc(F)cc2)=NN(c2ccccc2)[C@H]1C(=O)N1CCOC1=O" , AC50 read as 12.6 µM (active)

Measured AC50 of "Cc1ccc(S(=O)(=O)N(C)C[C@@H]2Oc3ccc(NS(=O)(=O)c4ccccc4)cc3CC(=O)N([C@H](C)CO)C[C@@H]2C)cc1" : 26.6 µM (active)

# compound "C=CCN([C@@H](CC(C)C)C(=O)OC)S(=O)(=O)N(CC=C)[C@@H](CC(C)C)C(=O)OC" ; its AC50 = 25.9 µM (active)

----------
- System Under Test: Cysteine protease ATG4B (Homo sapiens);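 further: Fluorescence-based dose-response confirmation assay measuring inhibition of ATG4B activity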
- Sequence (Q9Y4P1 whole entry): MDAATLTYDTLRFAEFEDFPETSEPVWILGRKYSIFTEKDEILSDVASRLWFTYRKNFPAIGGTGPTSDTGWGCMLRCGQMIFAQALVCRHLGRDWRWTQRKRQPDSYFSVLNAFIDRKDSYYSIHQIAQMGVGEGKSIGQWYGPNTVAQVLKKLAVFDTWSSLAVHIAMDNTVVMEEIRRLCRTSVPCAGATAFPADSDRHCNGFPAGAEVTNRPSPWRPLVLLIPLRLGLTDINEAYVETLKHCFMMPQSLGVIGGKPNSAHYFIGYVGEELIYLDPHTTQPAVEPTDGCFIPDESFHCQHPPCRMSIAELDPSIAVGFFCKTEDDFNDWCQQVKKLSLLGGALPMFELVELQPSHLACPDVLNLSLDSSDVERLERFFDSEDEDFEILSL
- Assay type: functional
Active and inactive are the calls of the source.
Metric Name: IC50

For reference, reported IC50 for "CCOC(=O)c1c(NC=C2C(=O)CC(C)(C)CC2=O)sc(C)c1C" stands at 5.45 µM (active)

Quick note, IC50 for "O=C1C=C(N2CCOCC2)c2ccccc2C1=O" landed at 7.07 µM (active)

Documented IC50 of "O=c1[nH]c(=S)[nH]c2c1C(c1ccc(Br)cc1)c1c([nH]c(=S)[nH]c1=O)O2" : 2.96 µM (active)

Reported IC50 ( "Cc1sc2nc(C(C)C)nc(SCC(=O)NCc3ccco3)c2c1C" ) = 11.1 µM (active)

Reported IC50 of "COc1cc(NS(=O)(=O)c2ccc(Nc3nc(-c4cccc([N+](=O)[O-])c4)cs3)cc2)nc(OC)n1" : 11.3 µM (active)

----------
- Test Protocol: cytotoxicity toward NIH3T3 fibroblasts, dose response, counter-screen, cell-based, ATP luminescence, mouse fibroblasts (AID 2010);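 further: cells exposed to compound for about 90 hours before reading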
- Format: functional
Metric Name: EC50

Data point: "NCCc1c(-c2ccccc2)n(-c2ccccc2)c2ccccc12" ; EC50 = > 60 µM (inconclusive)

get_value(item= "COc1cc(CCN2C(=O)c3cccc4cccc(c34)C2=O)c(S(=O)(=O)N2CCC(C)CC2)cc1OC" , readout=EC50) returns > 60 µM (not active)

What the record says about "COc1ccc(OC)c(CNc2ccc3c(c2)CCC3)c1" : EC50 is > 60 µM (not active)

// recorded EC50 for "CCOC(=O)c1c(C)[nH]c(C(=O)OCC(=O)Nc2sc(C(=O)N(C)C)c(C)c2C(=O)OCC)c1C" : > 60 µM (not active)

Sample "O=C(CN1CCC(c2nc3ccccc3s2)CC1)NCc1ccccc1" ; EC50 observed: > 60 µM (not active)

----------
Please go through the items and note down their AC50.
- System Under Test: Paired box protein Pax-8 (Homo sapiens)
- Sequence (Q06710 whole entry): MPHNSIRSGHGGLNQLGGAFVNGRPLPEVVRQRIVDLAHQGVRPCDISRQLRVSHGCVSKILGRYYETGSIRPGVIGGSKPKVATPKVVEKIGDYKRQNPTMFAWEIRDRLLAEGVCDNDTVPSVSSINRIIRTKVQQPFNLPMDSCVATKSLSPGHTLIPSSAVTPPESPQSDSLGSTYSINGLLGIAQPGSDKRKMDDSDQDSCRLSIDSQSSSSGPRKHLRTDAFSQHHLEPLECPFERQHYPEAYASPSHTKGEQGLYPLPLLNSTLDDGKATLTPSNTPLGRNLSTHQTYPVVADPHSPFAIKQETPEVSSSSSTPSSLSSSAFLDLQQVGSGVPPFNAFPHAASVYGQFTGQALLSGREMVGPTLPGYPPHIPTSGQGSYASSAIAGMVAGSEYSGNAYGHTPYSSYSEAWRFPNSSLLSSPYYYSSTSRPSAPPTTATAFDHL
- Test Protocol: inhibitors of PAX8-driven TPO luciferase reporter, dose response, RMG-I cells, cherry-pick (AID 687027);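 further: luciferase reporter driven by Pax8 target thyroperoxidase promoter measured by SteadyGlo luminescence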
- Assay type: functional, cell-based
The source made the active and inactive calls.

get_value(item= "C[C@H](CO)N1C[C@H](C)[C@@H](CN(C)C(=O)Nc2ccc(F)cc2)OCc2ccccc2-c2c(n(C)c3ccccc23)C1=O" , readout=AC50) returns 24.6 µM (active)

Briefly, AC50 measured for "C[C@H](CO)N1C[C@H](C)[C@H](CN(C)Cc2ccc(-c3ccccc3)cc2)Oc2ccc(NS(=O)(=O)c3ccc(F)cc3)cc2CC1=O" : 27.1 µM (active)

Reported AC50 of "C[C@@H]1CCCCO[C@H](CN(C)Cc2ccc3c(c2)OCO3)[C@@H](C)CN([C@@H](C)CO)C(=O)c2cc(NS(=O)(=O)c3ccc(Cl)cc3)ccc2O1" : 9.45 µM (active)

// field: AC50; key: "C[C@H]1CCCCO[C@@H](CN(C)Cc2ccccc2)[C@@H](C)CN([C@@H](C)CO)C(=O)c2cc(NC(=O)Nc3ccc(C(F)(F)F)cc3)ccc2O1" ; value = 11.6 µM (active)

AC50 measured on "COc1ccc(S(=O)(=O)Nc2ccc3c(c2)C(=O)N([C@H](C)CO)C[C@@H](C)[C@H](CN(C)S(=O)(=O)c2ccc(Cl)cc2)OCCCC[C@H](C)O3)cc1" = 3.99 µM (active)

AC50 for "O=[N+]([O-])c1cc2c(ccc3occc32)o1" is 2.49 µM (active)

Briefly, AC50 measured for "C#CCN(C[C@@H]1[C@@H](OC(=O)NCc2ccc(OC)c(OC)c2)[C@@H](OC(=O)NCc2ccc(OC)c(OC)c2)Cn2c(=O)ccc(=O)n21)S(=O)(=O)c1ccc(C)cc1" : 3.91 µM (active)

Lookup result for "CC(=O)N1CCOc2ccc(S(=O)(=O)N3CCN(c4cccc(C(F)(F)F)c4)CC3)cc21" ; measured AC50: 2.36 µM (active)

Looking up "CN(Cc1ccccc1)N=Nc1[nH]cnc1C(N)=O" , I found its AC50 recorded as 21.2 µM (active)

----------
- System Under Test: Polyadenylate-binding protein 1 (Homo sapiens, UniProt P11940)
- Sequence (P11940 whole entry): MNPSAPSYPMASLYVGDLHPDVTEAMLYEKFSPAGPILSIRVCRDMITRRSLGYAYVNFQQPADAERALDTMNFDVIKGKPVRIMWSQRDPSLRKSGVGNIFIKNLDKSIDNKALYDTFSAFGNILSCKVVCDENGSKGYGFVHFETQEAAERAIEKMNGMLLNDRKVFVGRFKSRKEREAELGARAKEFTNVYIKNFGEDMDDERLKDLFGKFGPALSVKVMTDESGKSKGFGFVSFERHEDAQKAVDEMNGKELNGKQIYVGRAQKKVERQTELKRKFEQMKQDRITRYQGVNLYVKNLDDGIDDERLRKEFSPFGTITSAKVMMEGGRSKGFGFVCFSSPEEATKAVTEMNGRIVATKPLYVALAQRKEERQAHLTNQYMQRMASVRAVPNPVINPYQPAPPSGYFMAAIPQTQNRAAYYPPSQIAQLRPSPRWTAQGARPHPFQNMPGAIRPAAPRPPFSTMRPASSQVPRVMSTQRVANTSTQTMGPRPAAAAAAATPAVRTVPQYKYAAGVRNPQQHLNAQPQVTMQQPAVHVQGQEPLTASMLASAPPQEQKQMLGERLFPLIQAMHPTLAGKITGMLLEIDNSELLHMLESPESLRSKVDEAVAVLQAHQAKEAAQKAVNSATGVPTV
- Test Protocol: PABP1 MLLE–PAM2 binding inhibitor potency, dose response, biochemical, fluorescence polarization, FITC-PAM2 peptide (AID 602259)
- Assay type: functional
- Reported Conditions: read-out: IC50_Mean
Calls of active or inactive are those of the source.
Hello, when you answer, please use one of the following outcomes: active, inactive

**Q:** Hi, sorry to bother you, what did the test record for "Cc1cc(Sc2ncnc(N)c2[N+](=O)[O-])ncn1" ?
**A:** inactive

**Q:** # outcome recorded in this test, key = "O=C(NC12CC3CC(CC(C3)C1)C2)c1cnccn1"
**A:** inactive

**Q:** Outcome logged for "COc1ccc(NC(=S)N=Nc2c(O)[nH]c3ccccc23)cc1" in this assay:
**A:** inactive

**Q:** I'd appreciate the recorded outcome for "O=c1[nH]c2cc3c(cc2cc1CN(CCCO)Cc1nnnn1Cc1ccc(F)cc1)OCO3" from this test.
**A:** inactive

**Q:** Lab log entry: "COc1cccc(/C=C2\SC(=S)N(c3cccnc3)C2=O)c1OC" — outcome as called in the assay?
**A:** inactive

**Q:** For "COc1cccc(Nc2ccc(N3CCCCC3)cc2)c1OC" , which call appears in the assay record?
**A:** inactive

**Q:** Just curious, what result did "CN1Cc2c(N3CCOCC3)nc(SCc3ccccc3)c(C#N)c2CC1(C)C" get here?
**A:** inactive

**Q:** Could you check what this test reported for "CC1(c2ccc3noc(-c4ccc(F)cc4)c3c2)OCCO1" ?
**A:** active

All figures here come from ChEMBL document CHEMBL1201862.
